Target: sGC α1/β1 heterodimer (Homo sapiens, UniProt Q02108+Q02153)
Construct: expressed in transfected cells; host or cells: CHO-K1 (clone #7, CHO-K1/sGC)
Sequence (Q02108 whole entry): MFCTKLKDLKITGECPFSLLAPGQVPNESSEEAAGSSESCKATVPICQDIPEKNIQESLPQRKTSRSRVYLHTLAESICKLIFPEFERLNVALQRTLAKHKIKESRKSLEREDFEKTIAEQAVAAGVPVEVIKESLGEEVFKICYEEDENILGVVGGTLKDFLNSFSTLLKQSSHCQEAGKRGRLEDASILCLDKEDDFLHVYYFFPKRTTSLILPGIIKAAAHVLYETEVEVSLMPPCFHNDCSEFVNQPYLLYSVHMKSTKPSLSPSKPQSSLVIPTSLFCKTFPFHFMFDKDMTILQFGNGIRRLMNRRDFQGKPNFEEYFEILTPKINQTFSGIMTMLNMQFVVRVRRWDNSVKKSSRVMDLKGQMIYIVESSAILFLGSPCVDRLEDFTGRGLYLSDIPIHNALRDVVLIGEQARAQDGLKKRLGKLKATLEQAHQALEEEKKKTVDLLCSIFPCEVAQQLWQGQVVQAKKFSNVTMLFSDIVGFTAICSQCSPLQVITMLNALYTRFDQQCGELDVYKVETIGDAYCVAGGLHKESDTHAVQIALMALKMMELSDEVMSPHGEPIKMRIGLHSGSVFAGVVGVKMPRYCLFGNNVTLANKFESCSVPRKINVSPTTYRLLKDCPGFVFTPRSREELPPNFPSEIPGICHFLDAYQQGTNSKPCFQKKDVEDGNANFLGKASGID
Sequence (Q02153 whole entry): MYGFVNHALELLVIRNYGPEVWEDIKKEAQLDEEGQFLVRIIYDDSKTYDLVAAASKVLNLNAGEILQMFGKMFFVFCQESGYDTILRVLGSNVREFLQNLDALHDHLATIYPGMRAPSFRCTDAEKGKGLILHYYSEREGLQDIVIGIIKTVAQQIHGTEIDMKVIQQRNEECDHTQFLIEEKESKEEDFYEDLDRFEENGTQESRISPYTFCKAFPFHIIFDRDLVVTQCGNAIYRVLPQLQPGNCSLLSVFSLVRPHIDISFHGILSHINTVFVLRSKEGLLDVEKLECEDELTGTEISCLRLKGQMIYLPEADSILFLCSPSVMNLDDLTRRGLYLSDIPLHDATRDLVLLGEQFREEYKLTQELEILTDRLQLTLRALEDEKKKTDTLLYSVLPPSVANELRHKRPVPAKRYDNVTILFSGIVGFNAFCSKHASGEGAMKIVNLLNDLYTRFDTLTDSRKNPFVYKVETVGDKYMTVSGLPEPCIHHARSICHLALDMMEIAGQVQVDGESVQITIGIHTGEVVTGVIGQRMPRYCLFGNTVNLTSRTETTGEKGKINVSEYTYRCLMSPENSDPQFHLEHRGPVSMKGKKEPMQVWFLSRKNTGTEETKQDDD
Assay: Cell-based sGC functional assay (CASA assay): cGMP generation in CHO-K1/sGC cells, HTRF detection
Conditions: CHO-K1, percent activation relative to standard Compound A in CHO-K1/sGC cells; read-out: % Act.
Measured Emax by item
Value Kind: Emax

- CN1CCN(c2nc(-c3cn4ccnc4c(CCC(F)(F)C(F)(F)F)n3)nc3c2C(C)(c2ccc(F)cc2)C(=O)N3)CC1 (stereo not drawn) [Example 311A]: 92%
- CC1(c2ccc(F)cc2)C(=O)Nc2nc(-c3cn4c(Br)cnc4c(CCC(F)(F)F)n3)nc(N)c21 (stereo not drawn) [Example 264A]: 123%
- CCCc1nc(-c2nc(N)c3c(n2)NC(=O)C3(c2ccc(Cl)cc2)C2CC2)cn2ccnc12 (stereo not drawn) [Example 26B]: 81%
- CCCc1nc(-c2nc(N)c3c(n2)NC(=O)C3(C)c2ccc(Cl)c(F)c2)cn2ccnc12 (stereo not drawn) [Example 124B]: 103%
- CC1(c2ccc(C(F)(F)F)cn2)C(=O)Nc2nc(-c3cn4ccnc4c(CC4CCC4)n3)nc(N)c21 (stereo not drawn) [Example 119B]: 121%
- CC1(c2ccc(F)cc2)C(=O)Nc2nc(-c3cn4ccnc4c(Cc4ccccc4)n3)nc(N)c21 (stereo not drawn) [Example 93A]: 109%
- CCC1(CC)C(=O)Nc2nc(-c3cn4ccnc4c(Cc4ccccc4)n3)nc(N)c21 [Example 79]: 112%
- CC1(c2ccc(Cl)cn2)C(=O)Nc2nc(-c3cn4c(N)cnc4c(CCC(F)(F)C(F)(F)F)n3)nc(N)c21 (stereo not drawn) [Example 269A]: 198%
- CC(C)Cc1nc(-c2nc(N)c3c(n2)NC(=O)C3(C)c2ccc(F)cc2)cn2ccnc12 (stereo not drawn) [Example 19A]: 113%
- Nc1nc(-c2cn3ccnc3c(Cc3ccccc3F)n2)nc2c1C(c1ccc(Cl)cn1)(C1CC1)C(=O)N2 (stereo not drawn) [Example 110A]: 154%
- Cc1ccc(C2(C)C(=O)Nc3nc(-c4cn5ccnc5c(CCC(F)(F)C(F)(F)F)n4)nc(N)c32)cc1 (stereo not drawn) [Example 230B]: 117%
- CC1(c2ccc(F)cn2)C(=O)Nc2nc(-c3cn4ccnc4c(C4CCC4)n3)nc(N)c21 (stereo not drawn) [Example 27B]: 85%
- CC1(c2ccc(F)cc2)C(=O)Nc2nc(-c3cn4c(Cl)cnc4c(CCC(F)(F)C(F)(F)F)n3)nc(N)c21 (stereo not drawn) [Example 255A]: 142%
- CC(C)n1cc(C2(C)C(=O)Nc3nc(-c4cn5ccnc5c(CCC(F)(F)C(F)(F)F)n4)nc(N)c32)nn1 (stereo not drawn) [Example 67A]: 120%
- CC1(c2ccc(F)cc2)C(=O)Nc2nc(-c3cn4c(Cl)cnc4c(CCC(F)(F)F)n3)nc(N)c21 (stereo not drawn) [Example 258A]: 116%

====

Target: sGC α1/β1 heterodimer (Homo sapiens, UniProt Q02108+Q02153)
Construct: expressed in transfected cells; host or cells: CHO-K1 (clone #7, CHO-K1/sGC)
Assay: Cell-based sGC functional assay (CASA assay): cGMP generation in CHO-K1/sGC cells, HTRF detection
Details: CHO-K1, percent activation relative to standard Compound A in CHO-K1/sGC cells; read-out: % Act.
Value Kind: Emax (%)

* CC1(c2ccc(F)c(F)c2)C(=O)Nc2nc(-c3cn4ccnc4cn3)nc(N)c21 (stereo not drawn) [Example 141B] | 112
* CC1(c2ccc(Cl)cc2)C(=O)Nc2nc(-c3cn4ccnc4c(Cc4cccc(Cl)c4)n3)nc(N)c21 (stereo not drawn) [Example 95A] | 109
* CC(C)Cc1nc(-c2nc(N)c3c(n2)NC(=O)C3(C)c2ccc(F)cn2)cn2ccnc12 (stereo not drawn) [Example 23B] | 96
* CCCCc1nc(-c2nc(N)c3c(n2)NC(=O)C3(c2ccc(F)cc2)C2CCC2)cn2ccnc12 (single isomer, unassigned) [Example 361B] | 157
* COc1cn2cc(-c3nc(N)c4c(n3)NC(=O)C4(C)c3ccc(F)cc3)nc(CCCC(F)(F)F)c2n1 (stereo not drawn) [Example 176A] | 107
* Nc1nc(-c2cn3ccnc3c(CCC(F)(F)C(F)(F)F)n2)nc2c1C(c1ccc(F)cc1)(C1CCC1)C(=O)N2 (single isomer, unassigned) [Example 344B] | 163
* COc1ccc(-c2nc(-c3nc(N)c4c(n3)NC(=O)C4(C)c3ccc(F)cc3)cn3ccnc23)cc1 (stereo not drawn) | 63
* CC1(C(=O)NC2CC2)C(=O)Nc2nc(-c3cn4ccnc4c(CCC(F)(F)C(F)(F)F)n3)nc(N)c21 (stereo not drawn) [Example 60A] | 41
* Nc1nc(-c2cn3ccnc3c(CCC(F)(F)F)n2)nc2c1C(c1ncc(Cl)cn1)(C1CC1)C(=O)N2 (stereo not drawn) [Example 374A] | 126
* COc1cn2cc(-c3nc(N)c4c(n3)NC(=O)C4(C)c3ccc(F)cc3)nc(CCC(F)(F)C(F)(F)F)c2n1 (stereo not drawn) [Example 174A] | 139
* Cn1cc(C2(C)C(=O)Nc3nc(-c4cn5ccnc5c(Cc5ccc(F)cc5)n4)nc(N)c32)cn1 (stereo not drawn) [Example 88B] | 79
* CC1(c2ccc(F)cn2)C(=O)Nc2nc(-c3cn4ccnc4c(CCCC(F)(F)F)n3)nc(N)c21 (stereo not drawn) [Example 210B] | 97
* Cc1cc(C2(C3CC3)C(=O)Nc3nc(-c4cn5ccnc5c(CCC(F)(F)C(F)(F)F)n4)nc(N)c32)ncc1F (single isomer, unassigned) [Example 376B] | 127
* Nc1nc(-c2cn3ccnc3c(CCCC(F)(F)F)n2)nc2c1C(c1ncc(Cl)cc1F)(C1CC1)C(=O)N2 (single isomer, unassigned) [Example 371A] | 82
* CCc1cn2cc(-c3nc(N)c4c(n3)NC(=O)C4(C)c3ccccc3)nc(CCC(F)(F)C(F)(F)F)c2n1 (stereo not drawn) [Example 160B] | 102
* CC1(c2ccc(Cl)cc2)C(=O)Nc2nc(-c3cn4ccnc4c(CCC(F)(F)C(F)(F)F)n3)nc(N)c21 (stereo not drawn) [Example 238A] | 131
* CCC(CC)Cc1nc(-c2nc(N)c3c(n2)NC(=O)C3(C)c2ccc(F)cn2)cn2ccnc12 (stereo not drawn) [Example 18B] | 106
* Cc1cnc(C2(C3CC3)C(=O)Nc3nc(-c4cn5ccnc5c(CCCC(F)(F)F)n4)nc(N)c32)cn1 (single isomer, unassigned) [Example 357B] | 113
* Nc1nc(-c2cn3ccnc3c(CCC(F)(F)F)n2)nc2c1C(c1ccc(OC(F)(F)F)cc1)(C1CC1)C(=O)N2 (stereo not drawn) [Example 328A] | 106
* Cc1nnc(C2(C)C(=O)Nc3nc(-c4cn5ccnc5c(Cc5ccc(F)cc5)n4)nc(N)c32)s1 (stereo not drawn) [Example 33A] | 135
* Cn1cc(C2(C)C(=O)Nc3nc(-c4cn5ccnc5c(Cc5ccc(F)cc5)n4)nc(N)c32)nn1 (stereo not drawn) [Example 65A] | 108
* CC1(c2cc(F)cc(F)c2)C(=O)Nc2nc(-c3cn4ccnc4c(CCC(F)(F)F)n3)nc(N)c21 (stereo not drawn) [Example 195B] | 114
* CCCCc1nc(-c2nc(N)c3c(n2)NC(=O)C3(C)c2ccc(F)cn2)cn2ccnc12 (stereo not drawn) [Example 16B] | 117
* NC(=O)C1(C2CC2)C(=O)Nc2nc(-c3cn4ccnc4c(Cc4cccc(F)c4)n3)nc(N)c21 (stereo not drawn) [Example 42B] | 103
* CC1(C(=O)NC2CC2)C(=O)Nc2nc(-c3cn4ccnc4c(Cc4ccccc4F)n3)nc(N)c21 (stereo not drawn) [Example 35A] | 129
* Nc1nc(-c2cn3ccnc3c(CCC(F)(F)F)n2)nc2c1C(c1ccc(Cl)cc1)(C1CCC1)C(=O)N2 (single isomer, unassigned) [Example 351B] | 182
* CC1(c2ccc(Cl)cc2)C(=O)Nc2nc(-c3cn4ccnc4cn3)nc(N3CC(C(F)(F)F)C3)c21 (stereo not drawn) [Example 282A] | 153

====

Examples of compounds with documented log10 of EC50 follow.
Target: sGC α1/β1 heterodimer (Homo sapiens, UniProt Q02108+Q02153)
Test: Cell-based sGC functional assay (CASA assay): cGMP generation in CHO-K1/sGC cells, HTRF detection
Settings: inflection point (IP) of cGMP generation in CHO-K1/sGC cells, 4P fit; activity expressed as percentage of Compound A
Experimental: Biological Assay 1: Cell-Based sGC Functional Assay (CASA Assay) sGC is a heme-containing enzyme that converts GTP to secondary messenger cGMP. […] A CHO-K1 cell line stably expressing the sGC α1/β1 heterodimer was generated using a standard transfection protocol. […] The level of intracellular cGMP was determined using an HTRF-based assay kit (CisBio, 62GM2PEC), which detects the displacement of a fluorescence labeled cGMP from its specific antibody. […]
Value Kind: log10 of EC50 (log10 of the value in nM)

* CC1(c2ccc(F)cc2)C(=O)Nc2nc(-c3cn4ccnc4c(CCCc4ccccc4)n3)nc(N)c21 (stereo not shown) | 2.93
* COc1ccc(-c2nc(-c3nc(N)c4c(n3)NC(=O)C4(C)c3ccc(F)cc3)cn3ccnc23)cc1 (stereo not shown) | 2.77
* CC1(c2ccc(F)cc2)C(=O)Nc2nc(-c3cn4ccnc4c(CCC(F)(F)C(F)(F)F)n3)nc(N3CCN(S(C)(=O)=O)CC3)c21 (stereo not shown) [Example 299A] | 2.80
* CC1(C(=O)NC2CC2)C(=O)Nc2nc(-c3cn4ccnc4c(Cc4cccc(F)c4)n3)nc(N)c21 (single isomer, unassigned) [Example 31A] | 1.66
* CC1(c2ccc(OC(F)(F)F)cc2)C(=O)Nc2nc(-c3cn4ccnc4c(CCCC(F)(F)F)n3)nc(N)c21 (stereo not shown) [Example 207B] | 1.64
* CC(C)(C)CCc1nc(-c2nc(N)c3c(n2)NC(=O)C3(C)c2ccc(F)cc2)cn2ccnc12 (stereo not shown) [Example 121A] | 1.75
* CC1(c2ccc(F)cc2)C(=O)Nc2nc(-c3cn4ccnc4c(CC4CCC4)n3)nc(N)c21 (stereo not shown) [Example 114A] | 1.76
